tested on: Enterococcus faecalis; test: microbe, parasite or virus in culture; type: functional; details: SF23-1, time 20 hrs
Description: Antimicrobial activity against Enterococcus faecalis SF23-1 harboring erythromycin-resistance rRNA methylase B, tetracycline efflux protein L and chloramphenicol-florfenicol resistance methylase assessed as inhibition of visible growth of bacteria incubated for 20 hrs by broth microdilution method
# MIC listing for each entry below

{"columns": ["Compound", "MIC"],
 "data": [
  ["O=C(O)C1=c2ccccc2=NC2/C(=C/c3cccc(-c4ccc(Cl)c(C(F)(F)F)c4)c3)CCC12 (centres undefined)", "> 64 µg/mL"],
  ["CC1C/C(=C\\c2ncc([N+](=O)[O-])n2C)c2nc3ccccc3c(C(=O)O)c2C1 (racemic)", "> 64 µg/mL"],
  ["Cc1cc(/C=C2\\CC(C)Cc3c2nc2ccccc2c3C(=O)O)cc(C)c1O (racemic)", "> 64 µg/mL"],
  ["CC1C/C(=C\\c2ccc(-c3cccc(Cl)c3)o2)c2nc3ccccc3c(C(=O)O)c2C1 (racemic)", "> 64 µg/mL"],
  ["CO[C@@]1(NC(=O)Cc2cccs2)C(=O)N2C(C(=O)O)=C(COC(N)=O)CS[C@@H]21 [CEFOXITIN]", "> 32 µg/mL"],
  ["FC(F)(F)c1cc(-c2ccc(/C=C3\\CCCc4c3nc3ccccc3c4Cl)o2)ccc1Cl", "> 64 µg/mL"],
  ["CC[C@H]1OC(=O)[C@H](C)[C@@H](O[C@H]2C[C@@](C)(OC)[C@@H](O)[C@H](C)O2)[C@H](C)[C@@H](O[C@@H]2O[C@H](C)C[C@H](N(C)C)[C@H]2O)[C@](C)(O)C[C@@H](C)C(=O)[C@H](C)[C@@H](O)[C@]1(C)O [ERYTHROMYCIN]", "> 32 µg/mL"],
  ["CC1C/C(=C\\c2cccc(-c3ccc(Cl)c(C(F)(F)F)c3)c2)c2nc3ccccc3cc2C1 (racemic)", "> 64 µg/mL"],
  ["CC1C/C(=C\\c2cccc(-c3ccc(Cl)c(C(F)(F)F)c3)c2)c2nc3cc(N4CCOCC4)ccc3c(C(=O)O)c2C1 (racemic)", "32 µg/mL"],
  ["CC1C/C(=C\\c2ccco2)c2nc3ccccc3c(C(=O)O)c2C1 (racemic)", "> 64 µg/mL"],
  ["Cc1cc(/C=C2\\CC(C)Cc3c2nc2ccccc2c3C(=O)O)cc(C)c1Oc1ccc([N+](=O)[O-])cc1 (racemic)", "16 µg/mL"],
  ["CCC[C@@H]1C[C@@H](C(=O)N[C@@H]([C@H]2O[C@H](SC)[C@H](O)[C@@H](O)[C@H]2O)[C@H](C)Cl)N(C)C1 [CLINDAMYCIN]", "> 32 µg/mL"],
  ["CC1(C)C/C(=C\\c2ccc(-c3ccc(Cl)c(C(F)(F)F)c3)o2)c2nc3ccccc3c(C(=O)O)c2C1", "4 µg/mL"],
  ["C[C@H]1c2cccc(O)c2C(=O)C2=C(O)[C@]3(O)C(=O)C(C(N)=O)=C(O)[C@@H](N(C)C)[C@@H]3[C@@H](O)[C@@H]21 [DOXYCYCLINE ANHYDROUS]", "16 µg/mL"],
  ["CC1C/C(=C\\c2ccc(-c3ccc([N+](=O)[O-])cc3)o2)c2nc3ccccc3c(C(=O)O)c2C1 (racemic)", "> 64 µg/mL"],
  ["CC1C/C(=C\\c2cccc(-c3ccc(Cl)c(C(F)(F)F)c3)c2)c2nc3ccccc3c(C(N)=O)c2C1 (racemic)", "> 64 µg/mL"],
  ["CC1C/C(=C\\c2ccc(-c3ccc(Cl)c(C(F)(F)F)c3)o2)c2nc3ccccc3c(C(=O)N3CCN(C)CC3)c2C1 (racemic)", "> 64 µg/mL"],
  ["O=C(O)c1cn(C2CC2)c2cc(N3CCNCC3)c(F)cc2c1=O [CIPROFLOXACIN]", "16 µg/mL"],
  ["CC1C/C(=C\\c2ccc(-c3ccc(Cl)c(Cl)c3)o2)c2nc3ccccc3c(C(=O)O)c2C1 (racemic)", "8 µg/mL"]
]}
